Sourced from PubChem BioAssay AID1963867

Catalogue of IC50 values
- Test system: KRAS-mutant PDC tumor spheroid with HUVEC/MSC, viability;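 note: spheroids exposed to agents for seven days before reading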
- method: Anticancer human tumor 327498-153-R-J2-PDC patient-derived uterine carcinosarcoma cell line growth inhibition [KRAS2]
- condition-set: curve of first compound; second compound 1 µM

molecule: CC(=O)OC12COC1CC(O)C1(C)C(=O)C(O)C3=C(C)C(OC(=O)C(O)C(NC(=O)OC(C)(C)C)c4ccccc4)CC(O)(C(OC(=O)c4ccccc4)C21)C3(C)C (centres undefined) + COc1cc2nc(C)nc(NC(C)c3cc(N)cc(C(F)(F)F)c3)c2cc1OC1CCOC1
IC50: < 0.01 µM
//
molecule: O=C(c1cc(Cc2n[nH]c(=O)c3ccccc23)ccc1F)N1CCN(C(=O)C2CC2)CC1 + C=CC(=O)N1CCN(c2nc(OCC3CCCN3C)nc3c2CCN(c2cccc4cccc(C)c24)C3)CC1CC#N
IC50: 0.195 µM
//
molecule: CC1(C)CCC(CN2CCN(c3ccc(C(=O)NS(=O)(=O)c4ccc(NCC5CCOCC5)c([N+](=O)[O-])c4)c(Oc4cnc5[nH]ccc5c4)c3)CC2)=C(c2ccc(Cl)cc2)C1 + COc1cc2nc(C)nc(NC(C)c3cc(N)cc(C(F)(F)F)c3)c2cc1OC1CCOC1
IC50: 2.01 µM

Could you now look at the following molecule, please?
Notebook: CCN1CCN(Cc2ccc(Nc3ncc(F)c(-c4cc(F)c5nc(C)n(C(C)C)c5c4)n3)nc2)CC1 + C=CC(=O)N1CCN(c2nc(OCC3CCCN3C)nc3c2CCN(c2cccc4cccc(C)c24)C3)CC1CC#N , IC50 read as < 0.00316 µM
